The measured values listed here are drawn from the Immune Epitope Database (IEDB).

- assayed_system: HLA-B*18:01
- measurement_description: IEDB peptide-MHC binding, purified MHC/direct/fluorescence; filed as Kd, often an IC50 or EC50 that approximates it; bounds were set here for any values at or beyond the usual limits of such assays
- measurement_setup: source organism: Vibrio cholerae
recorded_metric: Kd

- residues: "VLKLRFWLI"
  assayed_system: "HLA-B*18:01"
  reading: "≥ 20 µM"

----------
- assayed_system: HLA-A*02:16
- measurement_description: IEDB peptide-MHC binding, purified MHC/competitive/fluorescence; filed as Kd, often an IC50 or EC50 that approximates it; bounds were set here for any values at or beyond the usual limits of such assays
- measurement_setup: source organism: Yersinia mollaretii ATCC 43969
recorded_metric: Kd

- residues: "DEQEFFYSQ"
  recorded_metric: "Kd"
  reading: "≥ 20 µM"

----------
- assayed_system: HLA-A*32:01
- measurement_description: IEDB peptide-MHC binding, purified MHC/competitive/radioactivity; filed as Kd, often an IC50 or EC50 that approximates it; bounds were set here for any values at or beyond the usual limits of such assays
- measurement_setup: source organism: Vaccinia virus Copenhagen
pKd: −log10 of the molar value.
recorded_metric: pKd

- residues: "YTLYKKLSF"
  assayed_system: "HLA-A*32:01"
  reading: 6.71

----------
- assayed_system: HLA-A*02:19
- measurement_description: IEDB peptide-MHC binding, purified MHC/direct/fluorescence; filed as Kd, often an IC50 or EC50 that approximates it; bounds were set here for any values at or beyond the usual limits of such assays
- measurement_setup: source organism: Giardia lamblia ATCC 50803
recorded_metric: Kd

- residues: "MTFPLHFRS"
  assayed_system: "HLA-A*02:19"
  reading: "≥ 20 µM"

----------
- assayed_system: HLA-A*31:01
- measurement_description: IEDB peptide-MHC binding, purified MHC/competitive/radioactivity; filed as Kd, often an IC50 or EC50 that approximates it; bounds were set here for any values at or beyond the usual limits of such assays
- measurement_setup: source organism: Triticum aestivum
pKd: −log10 of the molar value.

- residues: "VSFQQPLQQY"
  pKd: "≤ 4.15"

----------
- assayed_system: HLA-B*57:01
- measurement_description: IEDB peptide-MHC binding, purified MHC/competitive/fluorescence; filed as Kd, often an IC50 or EC50 that approximates it; bounds were set here for any values at or beyond the usual limits of such assays
- measurement_setup: source organism: Bacillus cereus G9241

- residues: "ITNPFFYQM"
  Kd: "270 nM"

----------
- assayed_system: HLA-B*44:02
- measurement_description: IEDB peptide-MHC binding, purified MHC/competitive/fluorescence; filed as Kd, often an IC50 or EC50 that approximates it; bounds were set here for any values at or beyond the usual limits of such assays
- measurement_setup: source organism: Entamoeba histolytica HM-1:IMSS
recorded_metric: Kd

- residues: "NPAACSYMV"
  recorded_metric: "Kd"
  reading: "≥ 5 µM"

----------
- assayed_system: HLA-A*68:02
- measurement_description: IEDB peptide-MHC binding, purified MHC/competitive/radioactivity; filed as Kd, often an IC50 or EC50 that approximates it; bounds were set here for any values at or beyond the usual limits of such assays
- measurement_setup: source organism: Homo sapiens
recorded_metric: Kd (µM)

- residues: "ELRRQVDQL"
  assayed_system: "HLA-A*68:02"
  recorded_metric: "Kd"
  qualifying_sign: "="
  reading: 1.21
- residues: "KLEGDSTDL"
  assayed_system: "HLA-A*68:02"
  recorded_metric: "Kd"
  qualifying_sign: "="
  reading: 2.05
- residues: "NLQKESRACL"
  assayed_system: "HLA-A*68:02"
  recorded_metric: "Kd"
  qualifying_sign: "="
  reading: 19.7
- residues: "PLNDNIATLL"
  assayed_system: "HLA-A*68:02"
  recorded_metric: "Kd"
  qualifying_sign: "="
  reading: 7.44
- residues: "LLEGEEERL"
  assayed_system: "HLA-A*68:02"
  recorded_metric: "Kd"
  qualifying_sign: "≥"
  reading: 136

----------
- assayed_system: HLA-B*27:05
- measurement_description: IEDB peptide-MHC binding, purified MHC/direct/fluorescence; filed as Kd, often an IC50 or EC50 that approximates it; bounds were set here for any values at or beyond the usual limits of such assays
- measurement_setup: source organism: Mycobacterium tuberculosis
pKd: −log10 of the molar value.
recorded_metric: pKd

- residues: "QRIAVPVTK"
  qualifying_sign: "="
  reading: 7.02
- residues: "RPRLWRSVI"
  qualifying_sign: "≤"
  reading: 4.70

----------
- assayed_system: HLA-A*01:01
- measurement_description: IEDB peptide-MHC binding, purified MHC/competitive/radioactivity; filed as Kd, often an IC50 or EC50 that approximates it; bounds were set here for any values at or beyond the usual limits of such assays
- measurement_setup: source organism: Dengue virus 3 Sri Lanka/1266/2000
recorded_metric: Kd (µM)

- residues: "VSLTCSNTIF"
  recorded_metric: "Kd"
  reading: 7.76

----------
- assayed_system: HLA-A*01:01
- measurement_description: IEDB peptide-MHC binding, purified MHC/direct/fluorescence; filed as Kd, often an IC50 or EC50 that approximates it; bounds were set here for any values at or beyond the usual limits of such assays
- measurement_setup: source organism: Marburg virus - Musoke, Kenya, 1980

- residues: "THYSGNIVH"
  Kd: "≥ 20 µM"
- residues: "GFPSLESSF"
  Kd: "≥ 20 µM"
- residues: "QGKQHLHSL"
  Kd: "≥ 20 µM"

----------
- assayed_system: HLA-A*30:01
- measurement_description: IEDB peptide-MHC binding, purified MHC/competitive/radioactivity; filed as Kd, often an IC50 or EC50 that approximates it; bounds were set here for any values at or beyond the usual limits of such assays
- measurement_setup: source organism: Mammarenavirus guanaritoense
pKd: −log10 of the molar value.
Known pKd of a selection of sequences

- residues: "GEKSRCYSLY"
  pKd: 5.16
- residues: "YSDPKRFFL"
  pKd: 5.21

----------
- assayed_system: HLA-A*11:01
- measurement_description: IEDB peptide-MHC binding, purified MHC/direct/fluorescence; filed as Kd, often an IC50 or EC50 that approximates it; bounds were set here for any values at or beyond the usual limits of such assays
- measurement_setup: source organism: Escherichia coli O157:H7
pKd: −log10 of the molar value.
recorded_metric: pKd

- residues: "YQAFRTKVH"
  recorded_metric: "pKd"
  reading: "≤ 4.70"

----------
- assayed_system: HLA-C*12:03
- measurement_description: IEDB peptide-MHC binding, purified MHC/direct/fluorescence; filed as Kd, often an IC50 or EC50 that approximates it; bounds were set here for any values at or beyond the usual limits of such assays
- measurement_setup: source organism: Escherichia coli O157:H7 str. EDL933

- residues: "YQAFRTKVH"
  assayed_system: "HLA-C*12:03"
  Kd: "204 nM"

----------
- assayed_system: HLA-B*08:01
- measurement_description: IEDB peptide-MHC binding, purified MHC/competitive/fluorescence; filed as Kd, often an IC50 or EC50 that approximates it; bounds were set here for any values at or beyond the usual limits of such assays
- measurement_setup: source organism: Mycobacterium tuberculosis variant bovis BCG str. Pasteur 1173P2
pKd: −log10 of the molar value.

- residues: "RPRLWRSVI"
  pKd: 6.49

----------
- assayed_system: HLA-B*46:01
- measurement_description: IEDB peptide-MHC binding, purified MHC/direct/fluorescence; filed as Kd, often an IC50 or EC50 that approximates it; bounds were set here for any values at or beyond the usual limits of such assays
- measurement_setup: source organism: Vibrio cholerae

- residues: "VLKLRFWLI"
  Kd: "≥ 20 µM"

----------
- assayed_system: HLA-B*57:01
- measurement_description: IEDB peptide-MHC binding, purified MHC/direct/fluorescence; filed as Kd, often an IC50 or EC50 that approximates it; bounds were set here for any values at or beyond the usual limits of such assays
- measurement_setup: source organism: Camelpox virus CMS
recorded_metric: Kd

- residues: "WQFAIHYSF"
  reading: "≥ 20 µM"

----------
- assayed_system: HLA-A*02:06
- measurement_description: IEDB peptide-MHC binding, purified MHC/competitive/radioactivity; filed as Kd, often an IC50 or EC50 that approximates it; bounds were set here for any values at or beyond the usual limits of such assays
- measurement_setup: source organism: Triticum aestivum
recorded_metric: Kd (nM)

- residues: "SQVSFQQPL"
  assayed_system: "HLA-A*02:06"
  value_units: "nM"
  reading: 14.3

----------
Known Kd of a selection of sequences
- assayed_system: HLA-A*01:01
- measurement_description: IEDB peptide-MHC binding, purified MHC/competitive/radioactivity; filed as Kd, often an IC50 or EC50 that approximates it; bounds were set here for any values at or beyond the usual limits of such assays
- measurement_setup: source organism: SARS coronavirus Tor2

- residues: "EFLTRNPAW"
  assayed_system: "HLA-A*01:01"
  qualifying_sign: "≥"
  Kd [µM]: 78.1
- residues: "ATSRTLSYY"
  assayed_system: "HLA-A*01:01"
  qualifying_sign: "="
  Kd [µM]: 0.00481
- residues: "MFSPIVPFW"
  assayed_system: "HLA-A*01:01"
  qualifying_sign: "≥"
  Kd [µM]: 78.1
- residues: "LYDANYFVCW"
  assayed_system: "HLA-A*01:01"
  qualifying_sign: "="
  Kd [µM]: 1.13
- residues: "VMPLSAPTL"
  assayed_system: "HLA-A*01:01"
  qualifying_sign: "≥"
  Kd [µM]: 78.1
- residues: "CFANKHAGF"
  assayed_system: "HLA-A*01:01"
  qualifying_sign: "≥"
  Kd [µM]: 78.1
- residues: "YIAVNDKALY"
  assayed_system: "HLA-A*01:01"
  qualifying_sign: "="
  Kd [µM]: 0.0129
